# measurement-protocol: Hemolytic activity in human RBC after 1 hr
# Type: ADME, cell-based
# experimental-setup: erythrocyte
Where a SMILES comes first, the peptide text is derived from it.
endpoint-name: HC10

INSERT INTO assay_data (compound, endpoint_name, recorded_result) VALUES
  ('NC(=O)[C@H](CCCN=C(N)N)NC(=O)[C@H](Cc1c[nH]c2ccccc12)NC(=O)[C@@H](N)CCCN=C(N)N (H-Arg-Trp-Arg-NH2)', 'HC10', '> 495.8 µM'),
  ('N=C(N)NCCC[C@H](NC(=O)[C@@H](N)CCCNC(=N)N)C(=O)N[C@@H](Cc1c[n+](CCCC2CCCCC2)cn1CCCC1CCCCC1)C(N)=O', 'HC10', '> 358 µM'),
  ('N=C(N)NCCC[C@H](NC(=O)[C@@H](N)Cc1c[n+](CCCC2CCCCC2)cn1CCCC1CCCCC1)C(N)=O', 'HC10', '> 457.6 µM');

For each listed entry, give its HC10.
1. N=C(N)NCCC[C@H](NC(=O)[C@H](CCCNC(=N)N)NC(=O)[C@@H](N)Cc1c[n+](CCCC2CCCCC2)cn1CCCC1CCCCC1)C(N)=O
2. N=C(N)NCCC[C@H](NC(=O)[C@H](Cc1c[n+](CCCC2CCCCC2)cn1CCCC1CCCCC1)NC(=O)[C@@H](N)CCCNC(=N)N)C(N)=O
3. N=C(N)NCCC[C@H](NC(=O)[C@H](Cc1cncn1CCCC1CCCCC1)NC(=O)[C@@H](N)CCCNC(=N)N)C(N)=O
4. N=C(N)NCCC[C@H](NC(=O)[C@H](Cc1c[nH]c2ccccc12)NC(=O)[C@H](CCCNC(=N)N)NC(=O)[C@@H](N)Cc1c[nH]c2ccccc12)C(N)=O (H-WRWR-NH2)

Response given:
1: > 357.7 µM; 2: > 357.8 µM; 3: > 432.9 µM; 4: > 364.5 µM
